Recorded Inhibition for the following compounds
# System: Plasmodium falciparum
# Protocol summary: GSK_TCMDC: Inhibition of Plasmodium falciparum 3D7 in whole red blood cells, using parasite LDH activity as an index of growth. Test compounds present at 2uM
# Type: functional
Only the number, expressed in %, is required.

{"columns": ["Compound", "Inhibition [%]"],
 "data": [
  ["Cc1c(S(=O)(=O)Nc2cccc(CCN3CCCCC3CCN3CCCC3)c2)sc2ccc(Cl)cc12 (centres undefined)", 93],
  ["COc1ccccc1C1CCN(C2CCC(NC(=O)/C=C/c3cc(C(F)(F)F)ccc3F)CC2)CC1 (centres undefined)", 97],
  ["COc1ccc2nc3cc(Cl)ccc3c(NCCCCNc3c4ccc(Cl)cc4nc4ccc(OC)cc34)c2c1", 99],
  ["CCN(CC)S(=O)(=O)c1cc(-c2ccc(=O)n(CC(=O)c3ccc(C)cc3)n2)ccc1C", 86],
  ["CN(C)CCN1CCN(Cc2ccc(-c3cccc(-c4nc5ccccc5[nH]4)c3)cc2)CC1.O=C(O)C(F)(F)F", 100],
  ["COc1c(C(=O)NC2CCN(Cc3ccccc3)C2)cnc2ccccc12.Cl (centres undefined)", 86],
  ["CC(=NNc1nc2ccccc2s1)c1ccccn1.Cl", 88],
  ["COc1ccc(C=NN=c2cc(C)[nH]c3ccc(C)cc23)c2ccccc12.Cl", 94]
]}

Okay, next one:
## Input Could you please provide reported Inhibition for CCCC(CNCc1ccc(Cl)c(C(F)(F)F)c1)CNc1nc2cnccc2[nH]1.Cl (centres undefined) ? Thanks!
## Output 99

Data provenance: ChEMBL document CHEMBL1157539
